Tested on: breast cancer cell line T47D
test_name: MTT cancer cell cytotoxicity assay, T47D
Format: cell-based, human
experimental_context: Homo sapiens, T47D cells, 48-72 h
measurement_kind: pIC50
The read-out pIC50 is expressed as -log10 of concentration in moles per litre.

Summary for this molecule, COc1ccccc1-c1nnc2ccc(-c3ccc(C)c(C)c3)cn12 [Example 32] : pIC50 is 6.83

Summary for this molecule, COc1ccc(-c2ccc3nnc(-c4ccc(C)cc4OC)n3c2)cc1F [Example 53] : pIC50 is 8.17

Summary for this molecule, COc1ccccc1-c1nnc2ccc(-c3ccc(O)c(C)c3)cn12 [Example 41] : pIC50 is 6.89

Summary for this molecule, COc1ccccc1-c1nnc2ccc(-c3ccc(C)cc3F)cn12 [Example 4] : pIC50 is 6.49

----------
Test system: liver cancer cell line SMMC7721
test_name: MTT cancer cell cytotoxicity assay, SMMC7721
Assay type: cell-based, human
experimental_context: Homo sapiens, SMMC-7721, SMMC7721 cells, 48-72 h
Method: Identification of 3-(2-methoxyphenyl)-6-(4-methoxyphenyl)-[1,2,4]triazolo[4,3-a]pyridine and analogs as inhibitors of cell proliferation that were evaluated with standard MTT cancer cell cytotoxicity assay (IC50) Human lung cancer cell line A549, breast cancer cell line T47D, liver cancer cell lines HepG2 and SMMC7721 as well as a mouse melanoma cell line B16F10 were used in the study. […] Cells were centrifuged, re-suspended in fresh growth media and counted. […]
Structures can show the parent of a compound that is named as a salt.
measurement_kind: pIC50
The read-out pIC50 is expressed as -log10 of concentration in moles per litre.

Summary for this compound, COc1ccc(-c2ccc3nnc(-c4c(OC)ccc(Br)c4OC)n3c2)cc1 : pIC50 is 6.70

Summary for this compound, COc1ccc(-c2ccc3nnc(-c4ccccc4OC)n3c2)cc1OC : pIC50 is 6.31

Summary for this compound, COc1ccc(-c2ccc3nnc(-c4ccc([N+](=O)[O-])cc4OC)n3c2)cc1 : pIC50 is 8.00

Summary for this compound, COc1ccc(-c2cn3c(-c4ccccc4OC)nnc3cc2C)cc1 : pIC50 is 7.03

Summary for this compound, COc1ccc(-c2ccc3nnc(-c4ccccc4C)n3c2)cc1 : pIC50 is 6.96

Summary for this compound, COc1ccc(-c2ccc3nnc(-c4ccccc4)n3c2)cc1 : pIC50 is 6.12

Summary for this compound, COc1cc(C)ccc1-c1nnc2ccc(-c3ccc(C)c(N)c3)cn12 : pIC50 is 7.89

Summary for this compound, COc1ccc(-c2ccc3nnc(-c4ccccc4OC)n3c2)cc1N [Example 46, hydrochloride] : pIC50 is 8.24

Summary for this compound, COc1ccccc1-c1nnc2ccc(-c3ccc(C)c(F)c3)cn12 : pIC50 is 6.79

Summary for this compound, COc1ccc(-c2ccc3nnc(-c4ccc(Cl)cc4OC)n3c2)cc1F : pIC50 is 8.34

Summary for this compound, COc1ccc(-c2ccc3nnc(-c4ccc(OC)cc4)n3c2)cc1 : pIC50 is 6.82

Summary for this compound, COc1ccc(-c2ccc3nnc(-c4ccccc4OC)n3c2)cc1Cl : pIC50 is 7.92

Summary for this compound, CCOc1ccccc1-c1nnc2ccc(-c3ccc(OC)cc3)cn12 : pIC50 is 7.42

Summary for this compound, COc1ccccc1-c1nnc2ccc(-c3ccc4c(c3)OCO4)cn12 : pIC50 is 6.96

Summary for this compound, COc1ccc(-c2ccc3nnc(-c4ccccc4OC)n3c2)cc1F : pIC50 is 8.00

Summary for this compound, COc1ccccc1-c1nnc2ccc(-c3ccc(C)c(C)c3)cn12 : pIC50 is 7.41

Summary for this compound, COc1ccccc1-c1nnc2ccc(-c3ccc(OCc4ccccc4)c(C)c3)cn12 : pIC50 is 5.48

Summary for this compound, COc1ccccc1-c1nnc2ccc(-c3cccc(C)c3)cn12 : pIC50 is 7.12

Summary for this compound, COc1ccc(-c2ccc3nnc(-c4cc(C)ccc4OC)n3c2)cc1 : pIC50 is 6.98

Summary for this compound, COc1cc(-c2ccc3nnc(-c4ccccc4OC)n3c2)ccc1N : pIC50 is 5.66

Summary for this compound, COc1ccccc1-c1nnc2ccc(-c3ccc(C)cc3C)cn12 : pIC50 is 6.94

Summary for this compound, COc1ccc(-c2ccc3nnc(-c4ccc(OC)cc4OC)n3c2)cc1 : pIC50 is 8.06

Summary for this compound, CNc1ccc(-c2ccc3nnc(-c4ccccc4OC)n3c2)cc1 [Example 48, hydrochloride] : pIC50 is 7.96

Summary for this compound, COc1ccc(-c2ccc3nnc(-c4ccc(C)cc4OC)n3c2)cc1 : pIC50 is 8.43

Summary for this compound, COc1ccccc1-c1nnc2ccc(-c3ccc(O)cc3)cn12 : pIC50 is 6.00

Summary for this compound, COc1ccc(-c2ccc3nnc(-c4ccc(C)cc4OC)n3c2)cc1F : pIC50 is 8.08

Summary for this compound, COc1cc(-c2ccc3nnc(-c4ccccc4OC)n3c2)ccc1O : pIC50 is 5.74

Summary for this compound, COc1ccc(-c2ccc3nnc(-c4c(F)cccc4OC)n3c2)cc1 : pIC50 is 7.44

Summary for this compound, COc1ccc(-c2ccc3nnc(-c4ccccc4OC)n3c2)cc1 : pIC50 is 7.89

Summary for this compound, COc1ccc(-c2ccc3nnc(-c4cccnc4Cl)n3c2)cc1 : pIC50 is 5.72

Summary for this compound, COc1ccc(-c2ccc3nnc(-c4cc(OC)c(OC)cc4OC)n3c2)cc1 : pIC50 is 6.51

Summary for this compound, COc1ccccc1-c1nnc2ccc(-c3ccc(C)cc3)cn12 : pIC50 is 7.29

Summary for this compound, COc1ccc(-c2ccc3nnc(-c4cc(OC)ccc4OC)n3c2)cc1 : pIC50 is 7.38

Summary for this compound, COc1ccccc1-c1nnc2ccc(-c3cc(C)c(OC)c(C)c3)cn12 : pIC50 is 5.76
